Tested on: Human immunodeficiency virus 1
Test: Inhibition of HIV-1 replication in human peripheral blood mononuclear cells.
Assay type: functional, organism-based
Entries and their EC50 values follow.
Entry rule: numbers only, all in µM.

Look over these answered cases.
mol=Cc1cn([C@H]2C[C@H](N=[N+]=[N-])[C@@H](CO)O2)c(=O)nc1N endpoint_name=EC50 units_of_measure=µM observed_result=5.1
mol=COc1cn([C@H]2C[C@H](N=[N+]=[N-])[C@@H](CO)O2)c(=O)[nH]c1=O endpoint_name=EC50 units_of_measure=µM observed_result=70
mol=N#CSc1cn([C@H]2C[C@H](N=[N+]=[N-])[C@@H](CO)O2)c(=O)[nH]c1=O endpoint_name=EC50 units_of_measure=µM observed_result=5.1
mol=C#CCOc1cn([C@H]2C[C@H](N=[N+]=[N-])[C@@H](CO)O2)c(=O)[nH]c1=O endpoint_name=EC50 units_of_measure=µM observed_result=38

Turning now to a further record.
Problem: May I ask what EC50 has been recorded for "CCOc1cn([C@H]2C[C@H](N=[N+]=[N-])[C@@H](CO)O2)c(=O)[nH]c1=O" ?
Solution: 54

----------
System: Human immunodeficiency virus 1
Experiment: Inhibition of HIV-1 replication in human peripheral blood mononuclear cells.
Type: functional, organism-based
ENDPOINT NAME: pEC50
When answering, recall that pEC50 equals minus log10 of the concentration in mol/L, and write that number alone.

compound=[N-]=[N+]=N[C@H]1C[C@H](n2ccc(N)nc2=O)O[C@@H]1CO endpoint_name=pEC50 observed_result=5.92

Problem: May I ask what pEC50 has been recorded for "[N-]=[N+]=N[C@H]1C[C@H](n2cc(F)c(N)nc2=O)O[C@@H]1CO" ?
Solution: 6.00

Problem: May I ask what pEC50 has been recorded for "[N-]=[N+]=N[C@H]1C[C@H](n2cc(F)c(=O)[nH]c2=O)O[C@@H]1CO" ?
Solution: 5.32

Problem: May I ask what pEC50 has been recorded for [N-]=[N+]=N[C@H]1C[C@H](n2ccc(=O)[nH]c2=O)O[C@@H]1CO [NAVURIDINE] ?
Solution: 6.70

----------
Entries and their EC50 values follow.
System: Human immunodeficiency virus 1
Assay: Inhibition of HIV-1 replication in human peripheral blood mononuclear cells.
Type: functional, organism-based
Entry rule: numbers only, all in nM.

molecule=N#CCOc1cn([C@H]2C[C@H](N=[N+]=[N-])[C@@H](CO)O2)c(=O)[nH]c1=O endpoint_name=EC50 observed_result=16000

Problem: May I ask what EC50 has been recorded for [N-]=[N+]=N[C@@H]1CC(n2cc(I)c(=O)[nH]c2=O)O[C@@H]1CO (some centres undefined) ?
Solution: 1100

Problem: May I ask what EC50 has been recorded for "[N-]=[N+]=N[C@H]1C[C@H](n2cc(N)c(=O)[nH]c2=O)O[C@@H]1CO" ?
Solution: 6200

Problem: May I ask what EC50 has been recorded for "Cc1cn([C@H]2C[C@H](N=[N+]=[N-])[C@@H](CO)O2)c(=O)n(/C=C/C=O)c1=O" ?
Solution: 10

Problem: May I ask what EC50 has been recorded for "[N-]=[N+]=N[C@H]1C[C@H](n2cc(Br)c(=O)[nH]c2=O)O[C@@H]1CO" ?
Solution: 1000

Problem: May I ask what EC50 has been recorded for "Cc1cn([C@H]2C[C@H](N=[N+]=[N-])[C@@H](CO)O2)c(=O)[nH]c1=O" ?
Solution: 2
